All values here come from ChEMBL document CHEMBL3885881.

# Species on record: Rattus norvegicus
# ASSAY INFO: DrugMatrix - Regimen: Daily Repeat
# Type: toxicity, organism-based, Sprague-Dawley
# Design: regimen Daily Repeat, gender Male, age 6-8 weeks
# ASSAY CONDITIONS: in vivo, po, 0 mg/kg, 120 h, tissue Plasma, route oral GAVAGE, dose level Control, time 5 day, […]
PROPERTY LABEL: CREATININE (mg/dL)

>>> result_number("CS(=O)(=O)Nc1ccc([N+](=O)[O-])cc1Oc1ccccc1 [NIMESULIDE]")
0.14
>>> result_number("O=c1c(-c2ccc(O)cc2)coc2cc(O)cc(O)c12 [GENISTEIN]")
0.16
>>> result_number("CCc1ccc(CCOc2ccc(CC3SC(=O)NC3=O)cc2)nc1 (configuration not stated) [PIOGLITAZONE]")
0.27
>>> result_number("CC(=O)Oc1ccccc1C(=O)O [ASPIRIN]")
0.19
>>> result_number("c1ccoc1 [FURAN]")
0.3
>>> result_number("CC(C)c1c(C(=O)Nc2ccccc2)c(-c2ccccc2)c(-c2ccc(F)cc2)n1CC[C@@H](O)C[C@@H](O)CC(=O)O [ATORVASTATIN]")
0.16
>>> result_number("CCCCC(=O)N(Cc1ccc(-c2ccccc2-c2nnn[nH]2)cc1)[C@H](C(=O)O)C(C)C")
0.17

====

# Organism: Rattus norvegicus
# ASSAY INFO: DrugMatrix - Regimen: Daily Repeat
# Assay type: toxicity, organism-based, Sprague-Dawley
# Parameters: regimen Daily Repeat, gender Male, age 6-8 weeks
# ASSAY CONDITIONS: in vivo, po, 0 mg/kg, 120 h, tissue Blood, route oral GAVAGE, dose level Control, time 5 day, vehicle .5 % CMC
Below, each entry is listed alongside its reported HEMATOCRIT.
PROPERTY LABEL: HEMATOCRIT (%)

>>> result_number("CCCNC(=O)NS(=O)(=O)c1ccc(Cl)cc1 [CHLORPROPAMIDE]")
36.55
>>> result_number("CN(C)C(=O)C(CCN1CCC(O)(c2ccc(Cl)cc2)CC1)(c1ccccc1)c1ccccc1 [LOPERAMIDE]")
33.8
>>> result_number("COc1cc(OC)c(C(=O)CCCN2CCCC2)c(OC)c1")
35.63
>>> result_number("C[C@H]1[C@H](NC(=O)/C(=N\\OC(C)(C)C(=O)O)c2csc(N)n2)C(=O)N1S(=O)(=O)O")
35.77
>>> result_number("COc1ccccc1[N+](=O)[O-]")
33.17
>>> result_number("CCOc1nc2cccc(C(=O)O)c2n1Cc1ccc(-c2ccccc2-c2nnn[nH]2)cc1")
35.3
>>> result_number("C#C[C@]1(O)CC[C@H]2[C@@H]3CCC4=CC(=O)CC[C@]4(C)[C@H]3CC[C@@]21C")
45.47
>>> result_number("COc1ccc2c(c1OC)C(=O)O[C@@H]2[C@H]1c2c(cc3c(c2OC)OCO3)CCN1C")
45.47
>>> result_number("CCn1cc(C(=O)O)c(=O)c2cc(F)c(N3CCNC(C)C3)c(F)c21 (stereo not given)")
41.12
>>> result_number("CN1C(=O)CN=C(c2ccccc2)c2cc([N+](=O)[O-])ccc21")
44.35

====

# Species: Rattus norvegicus
# ASSAY INFO: DrugMatrix - Regimen: Daily Repeat
# Assay type: toxicity, organism-based, Sprague-Dawley
# Set-up: regimen Daily Repeat, gender Male, age 6-8 weeks
# ASSAY CONDITIONS: in vivo, po, 0 mg/kg, […], tissue Blood, route oral GAVAGE, dose level Control, time 14 day, vehicle .5 % CMC
PROPERTY LABEL: ABSOLUTE EOSINOPHIL (CELLS/uL)

>>> result_number("COc1ccccc1[N+](=O)[O-]")
117.17

====

# Species: Rattus norvegicus
# ASSAY INFO: DrugMatrix - Regimen: Daily Repeat
# Type: toxicity, organism-based, Sprague-Dawley
# Design: regimen Daily Repeat, gender Male, age 6-8 weeks
# ASSAY CONDITIONS: in vivo, iv, 0 mg/kg, 120 h, tissue Blood, dose level Control, time 5 day, vehicle 100 % SALINE
PROPERTY LABEL: ABSOLUTE LYMPHOCYTE

>>> result("COc1cccc2c1C(=O)c1c(O)c3c(c(O)c1C2=O)C[C@@](O)(C(C)=O)C[C@@H]3O[C@H]1C[C@H](N)[C@H](O)[C@H](C)O1")
"11849.17 CELLS/uL"
>>> result("N=C(N)c1ccc(OCCCCCOc2ccc(C(=N)N)cc2)cc1")
"13593.17 CELLS/uL"
>>> result("O=C(O)P(=O)(O)O")
"13517.17 CELLS/uL"
>>> result("O=c1[nH]c(=O)n([C@H]2C[C@H](O)[C@@H](CO)O2)cc1F")
"12267.5 CELLS/uL"
>>> result("C[N+](C)(C)CCOC(=O)CCC(=O)OCC[N+](C)(C)C.[Cl-].[Cl-] [SUCCINYLCHOLINE CHLORIDE]")
"13593.17 CELLS/uL"

====

# Species: Rattus norvegicus
# ASSAY INFO: DrugMatrix - Regimen: Daily Repeat
# Assay type: toxicity, organism-based, Sprague-Dawley
# Parameters: regimen Daily Repeat, gender Male, age 6-8 weeks
# ASSAY CONDITIONS: in vivo, po, 0 mg/kg, 72 h, tissue Plasma, route oral GAVAGE, dose level Control, time 3 day, […]
Below, each entry is listed alongside its reported ALANINE AMINOTRANSFERASE.
PROPERTY LABEL: ALANINE AMINOTRANSFERASE (u/L)

>>> result_number("CC(C)c1c(C(=O)Nc2ccccc2)c(-c2ccccc2)c(-c2ccc(F)cc2)n1CC[C@@H](O)C[C@@H](O)CC(=O)O")
67.5
>>> result_number("Cc1ccc(C)c(OCCCC(C)(C)C(=O)O)c1")
63.67
>>> result_number("CCc1ccc(CCOc2ccc(CC3SC(=O)NC3=O)cc2)nc1 (centres undefined)")
56.67
>>> result_number("CS(=O)(=O)Nc1ccc([N+](=O)[O-])cc1Oc1ccccc1 [NIMESULIDE]")
97.67
>>> result_number("c1ccoc1")
49.33
>>> result_number("CCCCC(=O)N(Cc1ccc(-c2ccccc2-c2nnn[nH]2)cc1)[C@H](C(=O)O)C(C)C")
72
>>> result_number("ClC(Cl)(Cl)Cl [CARBON TETRACHLORIDE]")
65.17
>>> result_number("O=c1c(-c2ccc(O)cc2)coc2cc(O)cc(O)c12")
67.5
>>> result_number("CC(=O)Oc1ccccc1C(=O)O")
69.67

====

# Species: Rattus norvegicus
# ASSAY INFO: DrugMatrix - Regimen: Daily Repeat
# Format: toxicity, organism-based, Sprague-Dawley
# Design: regimen Daily Repeat, gender Male, age 6-8 weeks
# ASSAY CONDITIONS: in vivo, ip, 0 mg/kg, […], tissue Blood, route intraperitoneal, dose level Control, time 28 day, vehicle 100 % SALINE
PROPERTY LABEL: ABSOLUTE BASOPHIL (cells/µL)

>>> result_number("TRANSPLATIN")
91
>>> result_number("COBALTOUS CHLORIDE")
91

====

# Organism: Rattus norvegicus
# ASSAY INFO: DrugMatrix - Regimen: Daily Repeat
# Assay type: toxicity, organism-based, Sprague-Dawley
# Parameters: regimen Daily Repeat, gender Male, age 6-8 weeks
# ASSAY CONDITIONS: in vivo, po, 0 mg/kg, 120 h, tissue Blood, route oral GAVAGE, dose level Control, time 5 day, […]
Param label: returns satisfied when MONOCYTE < 1%, returns not satisfied otherwise, including exact equality.

>>> answer_label("CCc1ccc(CCOc2ccc(CC3SC(=O)NC3=O)cc2)nc1 (configuration not stated)")
"not satisfied"
>>> answer_label("CS(=O)(=O)Nc1ccc([N+](=O)[O-])cc1Oc1ccccc1 [NIMESULIDE]")
"not satisfied"
>>> answer_label("CC(=O)Oc1ccccc1C(=O)O")
"satisfied"
>>> answer_label("O=c1c(-c2ccc(O)cc2)coc2cc(O)cc(O)c12")
"not satisfied"
>>> answer_label("CCCCC(=O)N(Cc1ccc(-c2ccccc2-c2nnn[nH]2)cc1)[C@H](C(=O)O)C(C)C")
"satisfied"
>>> answer_label("CC(C)c1c(C(=O)Nc2ccccc2)c(-c2ccccc2)c(-c2ccc(F)cc2)n1CC[C@@H](O)C[C@@H](O)CC(=O)O")
"not satisfied"
>>> answer_label("c1ccoc1")
"not satisfied"

====

Below, each entry is listed alongside its reported LYMPHOCYTE.
# Species on record: Rattus norvegicus
# ASSAY INFO: DrugMatrix - Regimen: Daily Repeat
# Assay type: toxicity, organism-based, Sprague-Dawley
# Set-up: regimen Daily Repeat, gender Male, age 6-8 weeks
# ASSAY CONDITIONS: in vivo, po, 0 mg/kg, 120 h, tissue Blood, route oral GAVAGE, dose level Control, time 5 day, vehicle 100 % WATER
PROPERTY LABEL: LYMPHOCYTE

>>> result("O=c1[nH]c(=O)n(C2CCCO2)cc1F (stereo unspecified) [TEGAFUR]")
"85.83%"
>>> result("CCN(CC)CCNC(=O)c1ccc(N)cc1 [PROCAINAMIDE]")
"85.5%"
>>> result("CN(C)CCC=C1c2ccccc2CCc2ccccc21 [AMITRIPTYLINE]")
"92.17%"
>>> result("CNC1=Nc2ccc(Cl)cc2C(c2ccccc2)=[N+]([O-])C1 [CHLORDIAZEPOXIDE]")
"92%"
>>> result("CCN(CC)CCOC(=O)C1(C2CCCCC2)CCCCC1 [DICYCLOMINE]")
"83%"
>>> result("NC12CC3CC(CC(C3)C1)C2 [AMANTADINE]")
"92.17%"
